This collection of values is drawn from ChEMBL document CHEMBL2069290.

species on record: Homo sapiens; assay: Selectivity ratio of Ki for amyloid beta(1 to 42) to Ki for human Tau
PROPERTY LABEL: Ratio Ki

[Q] Name the recorded Ratio Ki for CN(C)c1ccc(C=C2C(=O)Nc3ccc(I)cc32)cc1 .
[A] 7.8

a: CNc1ccc(C=C2C(=O)Nc3ccc(I)cc32)cc1
b: CNc1ccc(/C=C2\Nc3ccc(I)cc3C2=O)cc1
c: CN(C)c1ccc(/C=C2\Nc3ccc(I)cc3C2=O)cc1
d: O=C1/C(=C/c2ccc(-c3cccc(I)c3)o2)NC(=S)N1CCc1c[nH]cn1
[Q] Arrange items by their Ratio Ki values in increasing order. Field: ranking. Enter the labels in the order requested.
[A] b, c, a, d
